Reference for the values: ChEMBL document CHEMBL5303304

- Test system: HEK-293T
- RUN_DESCRIPTION: Incucyte cell viability with HEK293T; also: unitless GR value; below 1 slowed growth and below 0 cell loss
- Assay type: toxicity, cell-based
- APPLIED_CONDITIONS: human, 0 h, 10 µM, compound concentration 10 uM, replicate number 2
A collection of molecules and their measured Growth Rate
Just the number.

# count of solved cases: 3
| MOLECULE | SYSTEM_NAME | Growth Rate |
| --- | --- | --- |
| CC(=O)N1CCN([C@H]2CCC[C@@H](NC(=O)c3cc4c(F)ccc(C)c4[nH]3)C2)CC1.O=C(O)C(F)(F)F | HEK-293T | -0.6 |
| Cc1cc(S(=O)(=O)N2CC(C)(C)c3cc(-c4ccc(C(F)(F)F)cc4)ccc32)ccc1OCC(=O)O | HEK-293T | -0.17 |
| CCCCC(C)(O)C/C=C/[C@H]1[C@H](O)CC(=O)[C@@H]1CCCCCCC(=O)O (some centres not stated) [MISOPROSTOL ACID] | HEK-293T | -0.77 |

Fill blank: measured Growth Rate of the molecule "Cc1cc(OCCC(C)(C)O)cc(C)c1-c1ccc(F)c2c1CC[C@H]2Oc1ccc2c(c1)OC[C@H]2CC(=O)O" is ____.
0.8

Fill blank: measured Growth Rate of the molecule COc1cc(C(=O)O)ncc1C#Cc1ccccc1NS(=O)(=O)c1cccc2c(N(C)C)ccnc12 [MSC-0516] is ____.
-0.98

Fill blank: measured Growth Rate of the molecule CCCCCN1C(=O)C2(COc3cc4c(cc32)OCO4)c2ccccc21 (configuration not stated) is ____.
0.62

Fill blank: measured Growth Rate of the molecule "O=C1NC(NC23CC4CC(CC(C4)C2)C3)=N/C1=C\c1ccc2ncsc2c1" is ____.
-0.26

Fill blank: measured Growth Rate of the molecule CN[C@@H](C)C(=O)N[C@H](C(=O)N1CCC[C@H]1c1nc(C(=O)c2ccc(F)cc2)cs1)C1CCCCC1 [LCL-161] is ____.
-0.96

Fill blank: measured Growth Rate of the molecule "Cc1cc(-c2cc3ncccc3c(OC[C@H]3CCCNC3)n2)ccc1N(C)C.O=C(O)C(F)(F)F" is ____.
-1

Fill blank: measured Growth Rate of the molecule "CCCCC/C=C/C=C1/C(=O)C=C[C@@H]1C/C=C\CCCC(=O)O" is ____.
-0.01

Fill blank: measured Growth Rate of the molecule CN(C)CCCn1cc(C2=C(c3c[nH]c4ccccc34)C(=O)NC2=O)c2ccccc21 [GF-109203] is ____.
-0.46

Fill blank: measured Growth Rate of the molecule CN(C)C(=O)c1sc2nc(N3CCC(S(C)(=O)=O)CC3)cc(C(F)(F)F)c2c1N [BI-5026] is ____.
0.24

Fill blank: measured Growth Rate of the molecule Cn1c(C2(NC(=O)c3ccc(NCC4CCCCC4)nc3)CCC2)nc2ccc(/C=C/C(=O)O)cc21 [BI 7656] is ____.
-0.78

Fill blank: measured Growth Rate of the molecule "CCCCNc1ncc2c(-c3ccc(CN4CCN(C)CC4)cc3)cn([C@H]3CC[C@H](O)CC3)c2n1" is ____.
0.42

Fill blank: measured Growth Rate of the molecule "NC1(c2ccc(-c3nc4c(O)ccnn4c3-c3ccccc3)cc2)CCC1" is ____.
-0.33

Fill blank: measured Growth Rate of the molecule "CNc1oc(-c2cccc3ccccc23)nc1C#N" is ____.
-0.92

Fill blank: measured Growth Rate of the molecule "CC(C)(c1ccc(OCc2cccc(COc3ccc(C(=N)N)cc3)c2)cc1)c1ccc(O[C@@H]2O[C@H](C(=O)O)[C@@H](O)[C@H](O)[C@H]2O)cc1.O=C(O)C(F)(F)F" is ____.
-0.08
